Every entry's value here was drawn from ChEMBL document CHEMBL1132282.

Molecular target: C-C chemokine receptor type 1 (Homo sapiens)
Sequence (P32246 whole entry): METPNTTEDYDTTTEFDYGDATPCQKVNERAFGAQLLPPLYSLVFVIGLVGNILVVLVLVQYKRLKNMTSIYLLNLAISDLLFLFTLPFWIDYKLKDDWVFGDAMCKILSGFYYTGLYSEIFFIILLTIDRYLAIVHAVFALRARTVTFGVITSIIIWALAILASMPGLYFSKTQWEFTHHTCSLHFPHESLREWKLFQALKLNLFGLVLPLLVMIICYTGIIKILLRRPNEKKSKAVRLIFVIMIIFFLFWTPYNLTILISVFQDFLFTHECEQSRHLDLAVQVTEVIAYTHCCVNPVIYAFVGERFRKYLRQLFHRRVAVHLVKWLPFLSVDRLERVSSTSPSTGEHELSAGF
Assay: Inhibition of [125I]-MIP-1 alpha binding to recombinant human C-C chemokine receptor type 1 expressed in HEK293 cells
VALUE_KIND: Ki (nM)

MOLECULE | VALUE_KIND | UNITS | EXPERIMENTAL_VALUE
COc1ccc(C(C#N)CCCN2CCC(O)(c3ccc(Cl)cc3)CC2)cc1 (centres undefined) | Ki | nM | 359
N#CC(CCCN1CCC(O)(c2ccc(F)cc2)CC1)(c1ccccc1)c1ccccc1 | Ki | nM | 136
N#CC(CCCN1CCC(O)(c2ccc(Cl)cc2)CC1)c1ccccc1 (centres undefined) | Ki | nM | 54
N#CC(CCCN1CCC(O)(c2ccc(Cl)cc2)CC1)c1ccc(F)cc1 (centres undefined) | Ki | nM | 533
N#CC1(CCCN2CCC(O)(c3ccc(F)cc3)CC2)c2ccccc2CSc2ccccc21 (centres undefined) | Ki | nM | 44
COC(=O)C(C#N)(CCCN1CCC(O)(c2ccc(Cl)cc2)CC1)c1ccccc1 (centres undefined) | Ki | nM | 53
N#CC1(CCCN2CCC(O)(Cc3ccccc3)CC2)c2ccccc2CSc2ccccc21 (centres undefined) | Ki | nM | 405
CCOc1ccc(C(C#N)CCCN2CCC(O)(c3ccc(Cl)cc3)CC2)cc1 (centres undefined) | Ki | nM | 1420
N#CC(CCCN1CCC(O)(c2ccc(Cl)cc2)CC1)c1ccccc1Cl (centres undefined) | Ki | nM | 306
N#CC1(CCCN2CCC(O)(c3ccc(Cl)cc3)CC2)c2ccccc2C=Cc2ccccc21 | Ki | nM | 56
Cn1cccc1C(C#N)CCCN1CCC(O)(c2ccc(Cl)cc2)CC1 (centres undefined) | Ki | nM | 429
N#Cc1ccccc1C(C#N)CCCN1CCC(O)(c2ccc(Cl)cc2)CC1 (centres undefined) | Ki | nM | 98
N#CC(CCCCCN1CCC(O)(c2ccc(Cl)cc2)CC1)(c1ccccc1)c1ccccc1 | Ki | nM | 99
CCCCC1(O)CCN(CCCC(C#N)(c2ccccc2)c2ccccc2)CC1 | Ki | nM | 4010

---

Molecular target: C-C chemokine receptor type 1 (Homo sapiens) (UniProt P32246)
Experiment: Inhibition of [125I]-MIP-1 alpha binding to recombinant human C-C chemokine receptor type 1 expressed in HEK293 cells at 3 uM concentration
Assay type: cell-based
Reported values of inhibition for individual entries
VALUE_KIND: inhibition (%)

COMPOUND | VALUE_KIND | EXPERIMENTAL_VALUE
N#CC1(CCCN2CCC(c3ccccc3)CC2)c2ccccc2CSc2ccccc21 (centres undefined) | inhibition | 19
N#CC1(c2ccccc2)CCN(CCCC2(C#N)c3ccccc3CSc3ccccc32)CC1 (centres undefined) | inhibition | 0
CC(=O)C1(c2ccccc2)CCN(CCCC2(C#N)c3ccccc3CSc3ccccc32)CC1 (centres undefined) | inhibition | 0
N#CC1(CCCN2CCC(C(O)(c3ccccc3)c3ccccc3)CC2)c2ccccc2CSc2ccccc21 (centres undefined) | inhibition | 0

---

Target: C-C chemokine receptor type 1 (Homo sapiens) (UniProt P32246)
Assay: Inhibition of [125I]-MIP-1 alpha binding to recombinant human C-C chemokine receptor type 1 expressed in HEK293 cells at 10 uM concentration
Assay type: cell-based
Could you please classify the records by inhibition using these ranges: low bin = under 20%, mid bin = from 20% up to 30%, high bin = 30% and over

COMPOUND | ANSWER_LABEL
N#CC(CCCN1CCC(O)(c2ccc(Cl)cc2)CC1)c1cccc(OCc2ccccc2)c1 (stereo not given) | low bin
N#CC1(CCCN2CCC(C(=O)O)(c3ccccc3)CC2)c2ccccc2Cc2ccccc21 | low bin
N#CC(CCCN1CCC(O)(c2ccc(Cl)cc2)CC1)c1ccccc1OCc1ccccc1 (stereo not given) | high bin
N#CC(CCCN1CCC(O)(c2ccc(N)cc2)CC1)(c1ccccc1)c1ccccc1 | high bin
COC(=O)C1(c2ccccc2)CCN(CCCC2(C#N)c3ccccc3Cc3ccccc32)CC1 | high bin
N#CC(CCCN1CCCC(O)(c2ccc(F)cc2)C1)(c1ccccc1)c1ccccc1 (stereo not given) | low bin
N#CC(CCCN1CCC(O)(c2ccc(Cl)cc2)CC1)c1cccc2ccccc12 (stereo not given) | high bin
N#CC(CCCN1CCC(O)(c2ccc(Cl)cc2)CC1)c1ccccc1C(F)(F)F (stereo not given) | mid bin
N#CC(CCCN1CCC(O)(c2ccc(F)cc2)C1)(c1ccccc1)c1ccccc1 (stereo not given) | mid bin
